Tested on: Human whole blood stimulated with a TLR2 agonist (lipoteichoic acid), IL-6 levels
method.notes: IRAK4 Whole Blood Assay
Type: cell-based
condition.parameters: lipoteichoic acid 10 μg/mL
quantity: pEC50
Worth noting: pEC50 values are minus log10 of concentrations stated in mol/L.

IN: GET /values?readout=pEC50&system=Human whole blood stimulated with a TLR2 agonist (lipoteichoic acid), IL-6 levels&item= CC(C)Nc1cc(-n2ncc3cc(C#N)cnc32)ncc1-c1cn([C@@H]2CCN(S(C)(=O)=O)C[C@H]2O)nn1 (single isomer, unassigned) [Example 204]
OUT: 6.15

IN: Subsequent entry: CC(C)Nc1cc(-n2cnc3cc(C#N)cnc32)ncc1-c1cn([C@@H]2CCC[C@H]2O)nn1 (single isomer, unassigned) [Example 83]
OUT: 6.07

IN: Subsequent entry: CC(F)Cn1cc(-c2cnc(-n3ncc4cc(C#N)cnc43)cc2NC(C)C)nn1 (single isomer, unassigned; enantiomer 2) [Example 167]
OUT: 5.99

IN: Subsequent entry: CC(C)Nc1cc(-n2ncc3cc(C#N)cnc32)ncc1-c1cn([C@@H]2CCC[C@H]2O)nn1 (single isomer, unassigned) [Example 80]
OUT: 6.23

IN: Subsequent entry: CC(C)(O)CCC1CC(c2cnc(-n3ncc4cc(C#N)cnc43)cc2NCC(F)F)=NO1 (centres unmarked) [Example 443]
OUT: 6.41

IN: Subsequent entry: CC(C)Nc1cc(-n2ncc3cc(C#N)cnc32)ncc1-c1cn([C@@H](C)[C@H](C)O)nn1 (single isomer, unassigned) [Example 90]
OUT: 6.77

IN: Subsequent entry: CC(F)Cn1cc(-c2cnc(-n3ncc4cc(C#N)cnc43)cc2NC(C)C)nn1 (single isomer, unassigned; enantiomer 1) [Example 166]
OUT: 6.96

IN: Subsequent entry: CC(C)Nc1cc(-n2ncc3cnc(N)nc32)ncc1-n1cc(CCC(C)(C)O)nn1 [Example 380]
OUT: 6.34

IN: Subsequent entry: CC(C)Nc1cc(-n2ncc3cc(C#N)cnc32)ncc1-c1cn(CC2CC2(F)F)nn1 (single isomer, unassigned) [Example 32]
OUT: 6.43

IN: Subsequent entry: CC(C)(O)CCc1cn(-c2cnc(-n3ncc4cc(C#N)cnc43)cc2NC2CCOC2)nn1 (centres unmarked) [Example 366]
OUT: 6.39

IN: Subsequent entry: CC(=O)N1CCC(n2cc(-c3cnc(-n4ncc5cc(C#N)cnc54)cc3NC(C)C)nn2)C1 (centres unmarked) [Example 158]
OUT: 6.28

IN: Subsequent entry: CC(C)Nc1cc(-n2ncc3cc(C#N)cnc32)ncc1-c1cn([C@@H](C)[C@H](C)O)nn1 (single isomer, unassigned) [Example 91]
OUT: 5.72

IN: Subsequent entry: CC(C)Nc1cc(-n2ncc3cc(C#N)cnc32)ncc1-c1cn(C2CCOC2)nn1 (centres unmarked) [Example 215]
OUT: 5.88

IN: Subsequent entry: CC(C)Nc1cc(-n2ncc3cc(C#N)cnc32)ncc1-c1cn(C2CCN(C)C2=O)nn1 (centres unmarked) [Example 22]
OUT: 6.31

* * *

Exercise: for every item that follows, state its recorded EC50.
Test system: Human whole blood stimulated with a TLR2 agonist (lipoteichoic acid), IL-6 levels
method.notes: IRAK4 Whole Blood Assay
Assay type: cell-based
condition.parameters: lipoteichoic acid 10 μg/mL
Express your answer in nM, writing the number without its unit.

IN: Form field: reported EC50 of CC(C)Nc1cc(-n2ncc3cc(C#N)cnc32)ncc1-c1cn([C@H](C)[C@H](C)O)nn1 (single isomer, unassigned) [Example 89]
OUT: 930

IN: Subsequent entry: CCNc1cc(-n2ncc3cc(C#N)cnc32)ncc1C1=NOC(CCC(C)(C)O)C1 (stereo not drawn) [Example 441]
OUT: 260

IN: Subsequent entry: CC(C)Nc1cc(-n2ncc3cc(C#N)cnc32)ncc1-c1cn([C@@H]2CCC[C@H]2O)nn1 (single isomer, unassigned) [Example 82]
OUT: 1660

IN: Subsequent entry: CC(=O)N1CCC[C@@H](c2cc(-c3cnc(-n4ncc5cc(C#N)cnc54)cc3NC(C)C)on2)C1 [Example 409]
OUT: 470

IN: Subsequent entry: CCC(C)(O)Cn1cc(-c2cnc(-n3ncc4cc(C#N)cnc43)cc2NC(C)C)nn1 (single isomer, unassigned) [Example 93]
OUT: 280

IN: Subsequent entry: CC(C)Nc1cc(-n2ncc3cc(C#N)cnc32)ncc1-c1cn([C@@H]2CCN(S(C)(=O)=O)C[C@H]2F)nn1 (single isomer, unassigned) [Example 211]
OUT: 290

* * *

method.notes: Caco-2 Permeability Assay
Assay type: in vitro ADME
condition.parameters: human, Caco-2, test compound 3 μM
Exercise: for every item that follows, state its recorded Papp at 2 h, 3 µM.
Express your answer in ×10⁻⁶ cm/s, writing the number without its unit.

IN: Form field: reported Papp at 2 h, 3 µM of "COC(=O)N[C@H]1CC[C@H](n2cc(-c3cnc(-n4ncc5cc(C#N)cnc54)cc3NC(C)C)nn2)CC1"
OUT: 10.6

IN: Subsequent entry: CC(C)Nc1cc(-n2ncc3cc(C#N)cnc32)ncc1-c1cc(C2COC(C)(C)CN2)no1 (stereo not shown)
OUT: 39.4

IN: Subsequent entry: "CCCNc1cc(-n2ncc3cc(C#N)cnc32)ncc1-n1cc(CCC(C)(C)O)nn1"
OUT: 30.2

IN: Subsequent entry: "CC(=O)N(C)CCCc1cc(-c2cnc(-n3ncc4cc(C#N)cnc43)cc2NC(C)C)on1"
OUT: 18.3

IN: Subsequent entry: CC(C)Nc1cc(-n2ncc3cc(C#N)cnc32)ncc1-c1cn([C@@H](C)[C@H](C)O)nn1 (single isomer, unassigned)
OUT: 10.1

* * *

As a worked illustration, we turn to IC50 data collected for IRAK4 (Homo sapiens (Human)).
Express your answer in nM, writing the number without its unit.

IN: Form field: reported IC50 of "CC(=O)N1CC(n2cc(-c3cnc(-n4ncc5cc(C#N)cnc54)cc3NC(C)C)nn2)C1"
OUT: 4

IN: Subsequent entry: CC(C)(O)CCc1cn(-c2cnc(-n3ncc4cc(C#N)cnc43)cc2NC2CCOC2)nn1 (stereo not shown)
OUT: 9

IN: Subsequent entry: CC(C)Nc1cc(-n2ncc3cc(C#N)cnc32)ncc1-n1cc(C2CCC(NC(C)C)CC2)nn1 (stereo not shown)
OUT: 3

IN: Subsequent entry: "CC(C)Nc1cc(-n2ncc3cc(C#N)cnc32)ncc1-n1cc(CCC(C)(C)O)nn1"
OUT: 3

IN: Subsequent entry: "CCCn1cc(-c2cnc(-n3ncc4cc(C#N)cnc43)cc2Nc2cnn(CC(F)F)c2)cn1"
OUT: 14

IN: Subsequent entry: CC(C)Nc1cc(-n2cnc3cc(C#N)cnc32)ncc1-c1cn([C@@H]2CCC[C@H]2O)nn1 (single isomer, unassigned)
OUT: 5

IN: Subsequent entry: CC(C)Nc1cc(-n2ncc3cc(C#N)cnc32)ncc1-c1cn(CC2CCO2)nn1 (stereo not shown)
OUT: 5

IN: Subsequent entry: "CC(C)Nc1cc(-n2ncc3cc(C#N)cnc32)ncc1-n1cc(CCO)nn1"
OUT: 29

IN: Subsequent entry: CC(C)Nc1cc(-n2ncc3cc(C#N)cnc32)ncc1-c1cn(CC(O)C(C)C)nn1 (stereo not shown)
OUT: 4

IN: Subsequent entry: "CC(C)Nc1cc(-n2ncc3cc(C#N)cnc32)ncc1-c1cn(-c2cccnc2)cn1"
OUT: 87

IN: Subsequent entry: "CC(=O)N[C@H]1CC[C@H](c2cc(-c3cnc(-n4ncc5cc(C#N)cnc54)cc3NC(C)C)on2)CC1"
OUT: 2

IN: Subsequent entry: "CC(C)Nc1cc(-n2ccc3cncnc32)ncc1-c1cn(Cc2cc(=O)[nH]c(=O)[nH]2)nn1"
OUT: 7

IN: Subsequent entry: CC(F)Cc1cn(-c2cnc(-n3ncc4cc(C#N)cnc43)cc2NC(C)C)nn1 (single isomer, unassigned) [Example 292]
OUT: 29

IN: Subsequent entry: "CC(C)Nc1cc(-n2ccc3cncnc32)ncc1-c1cn(CCCCCN)nn1"
OUT: 3

IN: Subsequent entry: "CC(C)Nc1cc(-n2ncc3cc(C#N)cnc32)ncc1-c1cn(CCC(C)(C)O)nn1"
OUT: 1

IN: Subsequent entry: CC(C)Nc1cc(-n2ncc3cc(C#N)cnc32)ncc1-n1cc(CC(F)C(C)(C)O)nn1 (racemic) [345, racemic]
OUT: 4

IN: Subsequent entry: CC(=O)N1C2CCC1CC(c1cc(-c3cnc(-n4ncc5cc(C#N)cnc54)cc3NC(C)C)on1)C2 (stereo not shown)
OUT: 2

IN: Subsequent entry: "CC(C)Nc1cc(-n2ncc3cc(C#N)cnc32)ncc1-c1cn(C2CCNCC2)nn1"
OUT: 2

IN: Subsequent entry: "CC(C)(F)CCc1cn(-c2cnc(-n3ncc4cc(C#N)cnc43)cc2N[C@@H]2CCOC2)nn1"
OUT: 4

IN: Subsequent entry: "CC(C)Nc1cc(-n2ncc3cc(C#N)cnc32)ncc1-c1cn(CC2CC2)cn1"
OUT: 10

IN: Subsequent entry: "CC(C)Nc1cc(-n2ncc3cc(C#N)cnc32)ncc1-n1cc(C(C)(C)O)nn1"
OUT: 194

IN: Subsequent entry: CC(F)Cc1cn(-c2cnc(-n3ncc4cc(C#N)cnc43)cc2NC2CC2)nn1 (stereo not shown)
OUT: 14

IN: Subsequent entry: "CC(C)Nc1cc(-n2ncc3cc(C#N)cnc32)ncc1-n1cc(-c2cccnc2)nn1"
OUT: 44

IN: Subsequent entry: "CC(C)Nc1cc(-n2cnc3cc(C#N)cnc32)ncc1-c1cn(C[C@H](C)O)nn1"
OUT: 10

IN: Subsequent entry: "CCn1cc(-c2cnc(-n3ncc4cc(C#N)cnc43)cc2NC(C)C)nn1"
OUT: 5

IN: Subsequent entry: "CC(C)Cc1cn(-c2cnc(-n3ncc4cc(C#N)cnc43)cc2NC(C)C)nn1"
OUT: 10

IN: Subsequent entry: "CCCc1cn(-c2cnc(-n3ncc4cc(C#N)c(N)nc43)cc2NC(C)C)nn1"
OUT: 3

IN: Subsequent entry: "CC(C)(O)CCc1cn(-c2cnc(-n3ncc4cc(C#N)cnc43)cc2N[C@@H]2CCC[C@@H]2F)nn1"
OUT: 1

IN: Subsequent entry: "CC(C)Nc1cc(-n2ncc3cnc(N)nc32)ncc1-n1cc(CCC(C)(C)F)nn1"
OUT: 4

IN: Subsequent entry: CC(C)Nc1cc(-n2ncc3cc(C#N)cnc32)ncc1-c1cn([C@@H]2CCN(S(C)(=O)=O)C[C@H]2F)nn1 (single isomer, unassigned)
OUT: 2

IN: Subsequent entry: "CC(C)Nc1cc(-n2ncc3cc(C#N)cnc32)ncc1-n1cc(CN(C)C)nn1"
OUT: 80
